# method: Bioavailability of orally administered FTS formulated in corn oil (plasma FTS by LC/MS)
# Format: in vivo, CD-1 mice
# test-conditions: CD-1, mouse, oral, 40 mg/kg, mice, gavage, corn oil suspension, dose 40 mg/ml (10 ml/kg), 1 hour
measured-parameter: concentration at 1 h (ng/mL)

molecule="CC(C)=CCC/C(C)=C/CC/C(C)=C/CSc1ccccc1C(=O)O [FTS, farnesyl-thiosalicylic acid]" measured_parameter="concentration at 1 h" obs_value=2160

----------
# method: Bioavailability of orally administered FTS to rats (plasma FTS by LC/MS)
# Format: in vivo, Crl:CD(SD) (IGS)BR rats
# test-conditions: Crl:CD(SD) (IGS)BR, rat, plasma, oral 200 mg/kg in corn oil (95%) and ethanol (5%), 12 hours
measured-parameter: concentration at 12 h (ng/mL)

smiles_string=CC(C)=CCC/C(C)=C/CC/C(C)=C/CSc1ccccc1C(=O)O measured_parameter="concentration at 12 h" obs_value=685
